B1: DCAF4 (parent)
chain: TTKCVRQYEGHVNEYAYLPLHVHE

variants of: B1; test: protein stability index of a GFP-peptide fusion (GPS, HEK-293T) (PSI 1-6); higher = more stable; settings: c terminus: a fixed tail appended;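 note: lentivirally expressed fusions sorted by FACS into six bins by GFP to DsRed ratio, PSI derived from sequencing read proportions per bin multiplied by bin number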
In this section we review reported protein stability index values for a set of variants.
Reply with just the number.

INPUT: Looking for the measured protein stability index of Q7D , can you help?
OUTPUT: 2.8

The measured values listed here are drawn from the supplement of paper PMC10567573.
